Target: JAK3 (Homo sapiens (Human), UniProt P52333)
Sequence (P52333 795-1124): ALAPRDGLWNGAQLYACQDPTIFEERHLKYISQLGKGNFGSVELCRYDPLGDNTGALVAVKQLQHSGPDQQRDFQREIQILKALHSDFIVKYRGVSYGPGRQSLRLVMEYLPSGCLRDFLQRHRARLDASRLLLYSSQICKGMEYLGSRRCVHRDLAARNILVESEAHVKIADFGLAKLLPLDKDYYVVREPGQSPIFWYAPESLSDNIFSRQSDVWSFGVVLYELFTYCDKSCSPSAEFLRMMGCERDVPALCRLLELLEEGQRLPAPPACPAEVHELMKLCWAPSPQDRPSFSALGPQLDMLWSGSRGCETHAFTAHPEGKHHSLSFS
Test: In vitro JAK kinase assay (TR-FRET), JAK3
Settings: catalytic domain aa 795-1124, GST-fusion; ATP 0.6 μM; peptide 140 nM; 30 minutes at room temperature
Method: Compounds were screened for their ability to inhibit JAK1, JAK2 and JAK3 using the assays as indicated below. […] The enzymatic activity was assayed using as substrate a biotinylated peptide, poly (GT)-Biotin (CisBio). […] The degree of phosphorylation was detected by TR-FRET (time-resolved fluorescence energy transfer). […] Incubate for 3 h and read on Victor 2V spectrofluorometer (Perkin Elmer) set to read fluorescence resonance energy transfer.
Experimental Endpoint: IC50 (nM)

[1] COc1nc(-c2cnn3ccccc23)nc(N[C@@H]2CCCN(C(=O)CO)C2)c1C [Example 93]
[2] C[C@H](Nc1nc(-c2cnn3ccccc23)nc(OCCO)c1F)c1ncc(F)cn1 [Example 12]
Q) Returns: the argument ( 1 or 2 ) having the larger IC50. // caller expects the label of the chosen entry
A) 1
